// reported TGI per item
- Tested on: OVCAR-8 ovarian
- MEASUREMENT DESCRIPTION: NCI tumour cell line growth inhibition, 48 h

>  <COMPOUND>
Cc1cccc(N2C(=O)C(=O)C(c3nc4ccccc4s3)/C(=N/NC(=S)NN)C2=O)c1C (stereo unspecified)

>  <TARGET DESC>
OVCAR-8 ovarian

>  <TGI>
> 100 µM

$$$$
>  <COMPOUND>
Cc1ccc(C2=C(c3ccccc3)C(c3ccccc3)Oc3ccc(C)cc32)cc1 (stereo unspecified)

>  <TARGET DESC>
OVCAR-8 ovarian

>  <TGI>
26.7 µM

$$$$
>  <COMPOUND>
CCOC(=O)C1=C(C)N(NC(N)=O)C(C)(O)C12CCOC2=O (stereo unspecified)

>  <TARGET DESC>
OVCAR-8 ovarian

>  <TGI>
> 100 µM

$$$$
>  <COMPOUND>
CC1(C)C2CC3C4CC5(Nc6ccccc6C5N41)[C@]3(C)CC2=O (stereo partly specified)

>  <TARGET DESC>
OVCAR-8 ovarian

>  <TGI>
> 50 µM

$$$$
>  <COMPOUND>
O=C(O)CNn1c(SCC(=O)O)nnc(/C=C/c2c(O)ccc3ccccc23)c1=O

>  <TARGET DESC>
OVCAR-8 ovarian

>  <TGI>
28.6 µM

$$$$
>  <COMPOUND>
Nc1c(-c2ccccc2[N+](=O)[O-])nc2ccccn12

>  <TARGET DESC>
OVCAR-8 ovarian

>  <TGI>
> 100 µM

$$$$
>  <COMPOUND>
COc1ccc(/C=C2\Sc3nnc(CNc4ccc(Cl)cc4)n3N=C2c2cc(F)c(Cl)cc2Cl)cc1OC

>  <TARGET DESC>
OVCAR-8 ovarian

>  <TGI>
> 100 µM

$$$$
>  <COMPOUND>
CC(C)(C)OC/C=C1\C(=O)O[C@H]2C[C@@H](O[Si](C)(C)C(C)(C)C)C[C@@H]12

>  <TARGET DESC>
OVCAR-8 ovarian

>  <TGI>
> 100 µM

$$$$
>  <COMPOUND>
NCCCCC(=O)c1cccnc1

>  <TARGET DESC>
OVCAR-8 ovarian

>  <TGI>
> 100 µM

$$$$
>  <COMPOUND>
CO[C@@H]1C[C@H]2N3CC[C@@]2(c2cc4c(cc2C3)OCO4)[C@H]2O[C@@H]12

>  <TARGET DESC>
OVCAR-8 ovarian

>  <TGI>
> 100 µM

$$$$
>  <COMPOUND>
CN1CCN(Cc2ccc(NC(=O)c3cncc(C#Cc4cncc5nccnc45)c3)cc2C(F)(F)F)CC1

>  <TARGET DESC>
OVCAR-8 ovarian

>  <TGI>
24.1 µM

$$$$

* * *

- Tested on: SK-MEL-28 melanoma
- MEASUREMENT DESCRIPTION: NCI tumour cell line growth inhibition, 48 h
Where a SMILES comes first, the peptide text is derived from it.

>  <COMPOUND>
CCCCNC(=O)c1cc(NCc2cc(O)ccc2O)ccc1O

>  <TGI>
30.3 µM

$$$$
>  <COMPOUND>
NCCOc1ccccc1/C=C1\c2ccccc2-c2ccc([N+](=O)[O-])cc21

>  <TGI>
3.18 µM

$$$$
>  <COMPOUND>
O=C(NCCN1CCCCC1)c1ccc(I)cc1

>  <TGI>
> 100 µM

$$$$
>  <COMPOUND>
Clc1ccc(-c2ccc(-c3nnc(COc4ccc(OCc5nnc(-c6ccc(-c7ccc(Cl)cc7Cl)o6)o5)c(Cl)c4)o3)o2)c(Cl)c1

>  <TGI>
> 100 µM

$$$$
>  <COMPOUND>
C[C@]1(Cn2ccnn2)C(C(=O)O)N2C(=O)CC2S1(=O)=O (stereo partly drawn)

>  <TGI>
> 100 µM

$$$$
>  <COMPOUND>
O=C1C(=O)c2ccccc2C(O)=C1CCCc1ccc(C2CCCCCC2)cc1

>  <TGI>
> 93.3 µM

$$$$
>  <COMPOUND>
CC(C)(C)OC(=O)c1ccc(NCC2=CC(=O)C=CC2=O)cc1

>  <TGI>
29.2 µM

$$$$
>  <COMPOUND>
CCCCOCc1cc(CN2CCN(C)CC2)c(O)c2ncccc12

>  <TGI>
> 100 µM

$$$$
>  <COMPOUND>
CCC(C)C1NC(=O)C2CCCN2C(=O)CNC(=O)C(C)NC(=O)C(Cc2ccccc2)NC(=O)C(C(C)C)NC1=O (stereo not drawn) (cyclo(GPIVFA); configuration not given here)

>  <TGI>
> 100 µM

$$$$
>  <COMPOUND>
Cc1sc(C)c2c1C(=O)CC2N (stereo not drawn)

>  <TGI>
> 62.5 µM

$$$$
>  <COMPOUND>
CCCCN(CCCC)CCC(O)c1cc2c(Cl)cc(Cl)cc2c2cc(C(F)(F)F)ccc12 (stereo not drawn)

>  <TGI>
33.1 µM

$$$$
>  <COMPOUND>
CCOC(=N)CC(=O)Nc1cccc(Cl)c1

>  <TGI>
> 100 µM

$$$$
>  <COMPOUND>
Cc1ccc(N=NN(C)C(=O)C(C)N)cc1 (stereo not drawn)

>  <TGI>
> 100 µM

$$$$

* * *

- System: EKVX NSCLC
- MEASUREMENT DESCRIPTION: NCI tumour cell line growth inhibition, 48 h
Where a SMILES comes first, the peptide text is derived from it.
ENDPOINT LABEL: TGI

>  <MOLECULE>
Clc1ccc(-c2ccc(-c3nnc(COc4ccc(OCc5nnc(-c6ccc(-c7ccc(Cl)cc7Cl)o6)o5)c(Cl)c4)o3)o2)c(Cl)c1

>  <TARGET DESC>
EKVX NSCLC

>  <RESULT>
> 100 µM

$$$$
>  <MOLECULE>
CCCCNC(=O)c1cc(NCc2cc(O)ccc2O)ccc1O

>  <TARGET DESC>
EKVX NSCLC

>  <RESULT>
28.1 µM

$$$$
>  <MOLECULE>
COC(=O)C1=CN(C2CCCCC2)C2(c3ccccc3)c3ccccc3C(=O)OC(=O)C12 (stereo not drawn)

>  <TARGET DESC>
EKVX NSCLC

>  <RESULT>
> 100 µM

$$$$
>  <MOLECULE>
COC(=O)c1ccccc1/C=C1\Cc2c(C)cc(C)cc2C1=O

>  <TARGET DESC>
EKVX NSCLC

>  <RESULT>
> 100 µM

$$$$
>  <MOLECULE>
CC(C)(CCCCC(C)(C)C1NC(=O)N1)C1NC(=O)N1

>  <TARGET DESC>
EKVX NSCLC

>  <RESULT>
> 10 µM

$$$$
>  <MOLECULE>
COc1ccc(/C=C2/NC(=S)N=C2Cl)cc1

>  <TARGET DESC>
EKVX NSCLC

>  <RESULT>
> 100 µM

$$$$
>  <MOLECULE>
N#Cc1c(N)nc(N)nc1N[C@H](c1nc2c(F)ccc(Cl)c2c(=O)n1-c1cccnc1)C1CC1

>  <TARGET DESC>
EKVX NSCLC

>  <RESULT>
37.2 µM

$$$$
>  <MOLECULE>
N=C(N)c1ccc(NCCOCCNc2ccc(C(=N)N)cc2)cc1

>  <TARGET DESC>
EKVX NSCLC

>  <RESULT>
> 100 µM

$$$$
>  <MOLECULE>
CC1(C)C=N[N+]2(C)C3C=CC(CC3)C12 (stereo not drawn)

>  <TARGET DESC>
EKVX NSCLC

>  <RESULT>
> 100 µM

$$$$
>  <MOLECULE>
COC(=O)/C=C1/SC(N2N=C(c3cccs3)CC2c2ccc(F)cc2)=NC1=O (stereo not drawn)

>  <TARGET DESC>
EKVX NSCLC

>  <RESULT>
23.6 µM

$$$$
>  <MOLECULE>
O/N=C(\CC(O)(C(F)(F)F)C(F)(F)F)c1cccc(Cl)c1

>  <TARGET DESC>
EKVX NSCLC

>  <RESULT>
67.6 µM

$$$$
>  <MOLECULE>
CCCCOCc1cc(CN2CCN(C)CC2)c(O)c2ncccc12

>  <TARGET DESC>
EKVX NSCLC

>  <RESULT>
> 100 µM

$$$$
>  <MOLECULE>
CCCCCCCCCCCCCCCC(=O)OCC1OC(OC)C2NP(=O)(N(CCCl)CCCl)OC1C2O (stereo not drawn)

>  <TARGET DESC>
EKVX NSCLC

>  <RESULT>
47.4 µM

$$$$
>  <MOLECULE>
Oc1ccccc1C1=NOC(c2ccc(C(F)(F)F)cc2)C1 (stereo not drawn)

>  <TARGET DESC>
EKVX NSCLC

>  <RESULT>
> 50 µM

$$$$
>  <MOLECULE>
O=C(CN1CCOCC1)c1ccc2c(c1)oc(=O)n2CCN1CCCC1

>  <TARGET DESC>
EKVX NSCLC

>  <RESULT>
> 100 µM

$$$$
>  <MOLECULE>
CCC(C)C1NC(=O)C2CCCN2C(=O)CNC(=O)C(C)NC(=O)C(Cc2ccccc2)NC(=O)C(C(C)C)NC1=O (stereo not drawn) (cyclo(GPIVFA); configuration not given here)

>  <TARGET DESC>
EKVX NSCLC

>  <RESULT>
> 100 µM

$$$$
>  <MOLECULE>
CCCCN[C@H]1C2C3CC4C5CC(C42)C1(C)C53 (stereo partly drawn)

>  <TARGET DESC>
EKVX NSCLC

>  <RESULT>
> 100 µM

$$$$
>  <MOLECULE>
CC(=O)C(CN(C)C)C(c1ccccc1)c1c(O)c2ccccc2oc1=O (stereo not drawn)

>  <TARGET DESC>
EKVX NSCLC

>  <RESULT>
> 100 µM

$$$$

Values from PubChem BioAssay (NCI)
